- System: 648629-189-R-J1-PDC complex spheroids viability
- assay-protocol: Anticancer human tumor 648629-189-R-J1-PDC patient-derived bladder carcinoma cell line growth inhibition [CLK]; active = viability on the fitted dose curve at most 10% of control; inactive = the rest
- condition-notes: second compound 3.16 µM; first compound 0.003 µM
Lab note: assign the record to one of T (active), F (inactive)

compound	tested-system	class-name
C=CC(=O)Nc1cc(Nc2nccc(-c3cn(C)c4ccccc34)n2)c(OC)cc1N(C)CCN(C)C + CNC(=O)c1ccc(Nc2nc(OC3CCCC3)c3c(-c4ccc5nc(C)oc5c4)c[nH]c3n2)c(OC)c1	648629-189-R-J1-PDC complex spheroids viability	F
CC(C)CC(NC(=O)C(Cc1ccccc1)NC(=O)c1cnccn1)B(O)O (centres undefined) + CNC(=O)c1ccc(Nc2nc(OC3CCCC3)c3c(-c4ccc5nc(C)oc5c4)c[nH]c3n2)c(OC)c1	648629-189-R-J1-PDC complex spheroids viability	T
C=CC(=O)Nc1cc(Nc2nccc(-c3cn(C)c4ccccc34)n2)c(OC)cc1N(C)CCN(C)C + CN1CCN(c2cc(C(=O)Nc3cc4cc(-c5cnn(C)c5)ccc4cn3)ccn2)CC1	648629-189-R-J1-PDC complex spheroids viability	T

Attention now turns to another entry.
Query block: Recorded test outcome, item CC(C)CC(NC(=O)C(Cc1ccccc1)NC(=O)c1cnccn1)B(O)O (centres undefined) + CN1CCN(c2cc(C(=O)Nc3cc4cc(-c5cnn(C)c5)ccc4cn3)ccn2)CC1
Result block: T

###

- Test system: 648629-189-R-J1-PDC complex spheroids viability
- assay-protocol: Anticancer human tumor 648629-189-R-J1-PDC cell line growth inhibition [CLK];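 note: drug exposure lasted seven days before viability readout; 100% = DMSO vehicle control wells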
- condition-notes: second compound 10 µM; first compound 3.16 µM; stronger effect = lower value
outcome-measure: viability, T/C (%)
// note: answer is a bare numeric in %

Query block: Identify viability, T/C associated with the compound C=C(F)C(=O)N1CCN(c2nc(OCC3CCCN3C)nc3c2CCN(c2cccc4cccc(Cl)c24)C3)CC1CC#N (stereo not given) + CNC(=O)c1ccc(Nc2nc(OC3CCCC3)c3c(-c4ccc5nc(C)oc5c4)c[nH]c3n2)c(OC)c1
Result block: 19.1

Query block: Specify viability, T/C for COc1cccc2c1C(=O)c1c(O)c3c(c(O)c1C2=O)CC(O)(C(=O)CO)CC3OC1CC(N)C(O)C(C)O1 (stereo not given) + CN1CCN(c2cc(C(=O)Nc3cc4cc(-c5cnn(C)c5)ccc4cn3)ccn2)CC1 and stop.
Result block: 0.11

Query block: Give the reported viability, T/C for this compound. Nc1ccn(C2OC(CO)C(O)C2(F)F)c(=O)n1 (stereo not given) + CN1CCN(c2cc(C(=O)Nc3cc4cc(-c5cnn(C)c5)ccc4cn3)ccn2)CC1
Result block: 0.28

Query block: Given Nc1ccccc1NC(=O)c1ccc(CNC(=O)OCc2cccnc2)cc1 + CNC(=O)c1ccc(Nc2nc(OC3CCCC3)c3c(-c4ccc5nc(C)oc5c4)c[nH]c3n2)c(OC)c1 , respond with its viability, T/C.
Result block: 15.6

Query block: Give viability, T/C for the following compound: CCCS(=O)(=O)Nc1ccc(F)c(C(=O)c2c[nH]c3ncc(-c4ccc(Cl)cc4)cc23)c1F + CNC(=O)c1ccc(Nc2nc(OC3CCCC3)c3c(-c4ccc5nc(C)oc5c4)c[nH]c3n2)c(OC)c1
Result block: 18.7

Query block: Complete the entry with viability, T/C for O=c1[nH]cc(F)c(=O)[nH]1 + CNC(=O)c1ccc(Nc2nc(OC3CCCC3)c3c(-c4ccc5nc(C)oc5c4)c[nH]c3n2)c(OC)c1
Result block: 11.5

Query block: Write down viability, T/C measured for item C=CC(=O)N1CCN(c2nc(=O)n(-c3c(C)ccnc3C(C)C)c3nc(-c4c(O)cccc4F)c(F)cc23)C(C)C1 (stereo not given) + CN1CCN(c2cc(C(=O)Nc3cc4cc(-c5cnn(C)c5)ccc4cn3)ccn2)CC1
Result block: 0.22

Query block: Specify viability, T/C for CC(=O)O[C@H]1C(=O)[C@@]2(C)[C@H]([C@H](OC(=O)c3ccccc3)[C@]3(O)C[C@H](OC(=O)[C@H](O)[C@@H](NC(=O)c4ccccc4)c4ccccc4)C(C)=C1C3(C)C)[C@]1(OC(C)=O)CO[C@@H]1C[C@@H]2O + CN1CCN(c2cc(C(=O)Nc3cc4cc(-c5cnn(C)c5)ccc4cn3)ccn2)CC1 and stop.
Result block: 1.53

Query block: Given Nc1ccccc1NC(=O)c1ccc(CNC(=O)OCc2cccnc2)cc1 + CN1CCN(c2cc(C(=O)Nc3cc4cc(-c5cnn(C)c5)ccc4cn3)ccn2)CC1 , respond with its viability, T/C.
Result block: 2.26

Query block: // fetch viability, T/C given entry CCCS(=O)(=O)Nc1ccc(F)c(C(=O)c2c[nH]c3ncc(-c4ccc(Cl)cc4)cc23)c1F + CN1CCN(c2cc(C(=O)Nc3cc4cc(-c5cnn(C)c5)ccc4cn3)ccn2)CC1
Result block: 0.15
